- SYSTEM_UNDER_TEST: T1, cyno TfR extracellular domain (analogous construct to human TfR ecd) (cynomolgus monkey, UniProt Q5RDH6 87-760 (Pongo abelii entry))
- T1 construct: also called cynoTfR ecd
- T1 chain: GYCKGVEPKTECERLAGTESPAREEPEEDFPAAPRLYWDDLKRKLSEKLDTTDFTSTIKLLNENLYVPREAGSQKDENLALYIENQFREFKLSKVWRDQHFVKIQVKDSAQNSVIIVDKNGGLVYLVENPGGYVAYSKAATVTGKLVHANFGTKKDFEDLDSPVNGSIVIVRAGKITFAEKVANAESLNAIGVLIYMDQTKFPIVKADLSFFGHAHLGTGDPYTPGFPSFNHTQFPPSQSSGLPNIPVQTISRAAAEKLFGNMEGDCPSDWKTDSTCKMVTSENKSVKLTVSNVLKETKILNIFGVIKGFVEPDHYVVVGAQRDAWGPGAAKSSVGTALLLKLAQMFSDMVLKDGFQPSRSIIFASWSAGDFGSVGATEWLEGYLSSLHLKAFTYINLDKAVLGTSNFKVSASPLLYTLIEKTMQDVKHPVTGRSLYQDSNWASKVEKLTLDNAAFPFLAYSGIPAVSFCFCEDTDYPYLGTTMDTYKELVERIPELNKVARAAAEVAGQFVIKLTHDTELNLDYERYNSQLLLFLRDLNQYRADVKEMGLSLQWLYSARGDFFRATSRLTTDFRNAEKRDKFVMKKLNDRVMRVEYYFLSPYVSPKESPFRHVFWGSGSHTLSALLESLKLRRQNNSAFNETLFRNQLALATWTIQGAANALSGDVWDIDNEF
- EXPERIMENT_NOTES: SPR, IgG;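 further: His-tagged TfR captured via immobilized anti-His antibody on a CM5 chip, antibody injected in 3-fold dilution series by single cycle kinetics, 1:1 Langmuir or steady-state fit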
EXPERIMENTAL_READOUT: log10 Kd (log10 of the value in nM)

1) hu7A4.v4 (antibody, V domains shown, IgG) VH: EVQLVQSGAEVKKPGASVKVSCKGSGYTFTDYAMHWVRQAPGQGLEWMGGISTYFGRTNYNQKFKGRVTMTVDTSISTAYMELSRLRSDDTAVYYCARGLSGNYVMDYWGQGTTVTVSS VL: DIVMTQSPDSLAVSLGERATINCRASESVDSYGNSFMHWYQQKPGQPPKLLIYRASNLESGVPDRFSGSGSGTDFTLTISSLQAEDVAVYYCQQSNEGPPTFGQGTKLEIK: 0.58
2) 7A4 HC/8A2 LC (antibody, V domains shown, chimeric IgG; also called ch7A4/8A2) VH: QVQLQQSGPELVRPGVSVKISCKGSGYTFTDYAMHWVKQSHAKSLEWIGGISTYFGRTNYNQKFKGRATMTVDKSSSTAYMELARLTSEDSALYYCARGLSGNYVMDYWGQGTSVTVSS VL: DIVLTQSPASLAVSLGQRATISCRASESVDSYGNSFMHWYQQKPGQPPKLLIYRASNLESGIPARFSGSGSRTDFTLTINPVEADDVATYYCQQSNEGPPTFGGGTKLEIK: -0.03
3) hu15G11.v2 (antibody, V domains shown, IgG; HC 48 M, 67 V, 69 I, 71 V, 73 T) VH: EVQLVQSGAEVKKPGASVKVSCKASGYTFTSYWMHWVRQAPGQRLEWMGEINPTNGRTNYIEKFKSRVTITVDTSASTAYMELSSLRSEDTAVYYCARGTRAYHYWGQGTMVTVSS VL: DIQMTQSPSSLSASVGDRVTITCRASDNLYSNLAWYQQKPGKAPKLLLYDATNLADGVPSRFSGSGSGTDYTLTISSLQPEDFATYYCQHFWGTPLTFGQGTKVEIK: 1.25
4) 7A4 (antibody, V domains shown, also called clone 7A4) VH: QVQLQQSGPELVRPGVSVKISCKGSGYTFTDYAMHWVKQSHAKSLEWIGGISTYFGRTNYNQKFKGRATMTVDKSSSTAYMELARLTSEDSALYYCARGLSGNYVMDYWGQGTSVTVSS VL: DIVLTQSPASLAVSLGQRATISCRASESVDDYGNSFMHWYQQKPGQPPKLLIYRASNLESGIPARFSGSGSRTDFTLTINPVEADDVATYYCQQSNEAPPTFGGGTKLEIR: -0.20
5) hu7A4.v2 (antibody, V domains shown, IgG) VH: EVQLVQSGAEVKKPGASVKVSCKGSGYTFTDYAMHWVRQAPGQGLEWMGGISTYFGRTNYNQKFKGRVTMTRDTSISTAYMELSRLRSDDTAVYYCARGLSGNYVMDYWGQGTTVTVSS VL: DIVMTQSPDSLAVSLGERATINCRASESVDSYGNSFMHWYQQKPGQPPKLLIYRASNLESGVPDRFSGSGSGTDFTLTISSLQAEDVAVYYCQQSNEGPPTFGQGTKLEIK: 0.09
